Values compiled from patent US20190144550A1.

Target: wild-type EGFR expressed on cells (human), P00533
Assay: flow cytometry, F98-EGFRwt cells
Details: remark: other sources report otherwise
Listed binders paired with reported % positive
I'd appreciate it if you included the unit after the number.

For orientation, consider the following solved cases.
{"Binder": "12H6 (antibody, V domains shown) VH: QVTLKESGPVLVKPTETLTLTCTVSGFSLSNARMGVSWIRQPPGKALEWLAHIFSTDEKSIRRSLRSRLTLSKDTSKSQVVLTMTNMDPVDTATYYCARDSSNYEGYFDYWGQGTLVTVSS VL: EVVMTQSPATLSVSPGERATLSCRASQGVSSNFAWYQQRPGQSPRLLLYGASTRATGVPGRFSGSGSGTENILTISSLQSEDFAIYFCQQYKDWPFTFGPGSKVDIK", "Measured result": "1.9%"}
{"Binder": "12B2 (antibody, V domains shown) VH: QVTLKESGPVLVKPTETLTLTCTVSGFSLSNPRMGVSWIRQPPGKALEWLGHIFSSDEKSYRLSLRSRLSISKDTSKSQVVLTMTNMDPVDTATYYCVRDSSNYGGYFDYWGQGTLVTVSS VL: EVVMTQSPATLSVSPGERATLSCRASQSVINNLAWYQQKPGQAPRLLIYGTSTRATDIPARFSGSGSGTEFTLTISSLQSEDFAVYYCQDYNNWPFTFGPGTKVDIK", "Measured result": "1.5%"}
{"Binder": "11B11 (antibody, V domains shown) VH: QVTLKESGPVLVKPTETLTLTCTVSGFSLSNAKMGVSWIRQPPGKALEWLAHIFSTDEKSIRRSLRSRLTMSKDTSKSQVVLTMTNMDPVDTATYYCVRDSSNYEGYFDYWGQGTLVTVSS VL: EVLMTQSPATLSVSPGERATLSCRASQSVSTNFAWYQQRPGQAPRLLLFGASTRATGIPGRFSGSGSGTENILTISSLQSEDFAIYFCQQYKDWPFTFGPGSKVEIK", "Measured result": "1.7%"}

Turning now to a further record.
Using the record for 20E12 (antibody, V domains shown) VH: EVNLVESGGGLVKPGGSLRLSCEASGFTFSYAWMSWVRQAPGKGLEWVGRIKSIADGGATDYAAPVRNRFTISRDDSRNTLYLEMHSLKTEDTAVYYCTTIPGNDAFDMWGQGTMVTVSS VL: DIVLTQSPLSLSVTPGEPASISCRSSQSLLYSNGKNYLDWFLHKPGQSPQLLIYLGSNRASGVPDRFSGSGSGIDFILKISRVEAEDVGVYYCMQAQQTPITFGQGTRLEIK , report its % positive.
3.4%
